test.method.notes: Population pharmacokinetic (PPK) analysis, nonlinear mixed effects model, two-compartment model
Format: in vivo, patients and healthy adults
condition.parameters: population pharmacokinetic analysis; relative error 4.07%, 95% confidence interval 31.0-36.3
reported.property: TVQ, typical value of the intercompartmental clearance Q/F (point estimate) (L/h)
Provide the reading as a plain figure in L/h.

// query Look at this compound and give its reported TVQ, typical value of the intercompartmental clearance Q/F (point estimate). CO[C@H]1C[C@@H]2CC[C@@H](C)[C@@](O)(O2)C(=O)C(=O)N2CCCC[C@H]2C(=O)O[C@H]([C@H](C)C[C@@H]2CC[C@@H](O)[C@H](OC)C2)CC(=O)[C@H](C)/C=C(\C)[C@@H](O)[C@@H](OC)C(=O)[C@H](C)C[C@H](C)/C=C/C=C/C=C/1C
// result 33.6

Every entry's value here was drawn from patent US20260137664A1.
